# targetEntity: Thrombin (Homo sapiens)
# testDetails: The compound was tested for its ability to inhibit thrombin.
measureName: Ki (nM)
Give just the number in nM; leave the unit off.

[Q] Record request: Ki value, item Cc1nc(N)ccc1CNC(=O)Cn1c(C)cc2c(c1=O)NC(=O)[C@](C)(CC(C)C)C2
[A] 0.24
